Values compiled from patent US11098063B2.

Biological target: human TASK-3 (Homo sapiens (Human))
Experiment: Inhibition of recombinant TASK-3 in stably transfected CHO cells (voltage-sensitive dye, KCl depolarization)
Type: cell-based
Conditions: depolarization by 40 mM potassium chloride
Description: B-2. Inhibition of Recombinant TASK-1 and TASK-3 In Vitro The investigations on the inhibition of the recombinant TASK-1 and TASK-3 channels were conducted using stably transfected CHO cells. […] 6 (5), 305-312 (2001); Molecular Devices FLIPR Application Note: Measuring membrane potential using the FLIPR® membrane potential assay kit on Fluorometric Imaging Plate Reader (FLIPR®) systems, http://www.moleculardevices.com/reagents-supplies/assay-kits/ion-channels/flipr-membrane-potential-assay-kits]. […]
Kindly state IC50 for each of the entries shown.
Please give a number only; it is taken to be in nM.

Provide only the value of recorded IC50 for CC(C)(C)OC(=O)N1C2CCC1CN(Cc1c(-c3ccc(Cl)cc3)nc3ncccn13)C2 [Example 6]
41

Provide only the value of recorded IC50 for COc1ccc(F)c(C(=O)N2CC3CCC2CN3Cc2c(-c3ccc(Cl)cc3)nc3ncccn23)n1 (single isomer, unassigned) [Example 24]
102

Provide only the value of recorded IC50 for CCN(C(=O)N1C2CCC1CN(Cc1c(-c3ccc(Cl)cc3)nc3ncccn13)C2)C1CCCCC1 [Example 112]
130

Provide only the value of recorded IC50 for Cc1ccc(C)c(NC(=O)N2C3CCC2CN(Cc2c(-c4ccc(Cl)cc4)nc4ncccn24)C3)c1 [Example 99]
750

---

target: human TASK-1 (Homo sapiens (Human)); experiment: Inhibition of recombinant TASK-1 in stably transfected CHO cells (voltage-sensitive dye, KCl depolarization); format: cell-based; settings: depolarization by 40 mM potassium chloride
Sequence (O14649 whole entry): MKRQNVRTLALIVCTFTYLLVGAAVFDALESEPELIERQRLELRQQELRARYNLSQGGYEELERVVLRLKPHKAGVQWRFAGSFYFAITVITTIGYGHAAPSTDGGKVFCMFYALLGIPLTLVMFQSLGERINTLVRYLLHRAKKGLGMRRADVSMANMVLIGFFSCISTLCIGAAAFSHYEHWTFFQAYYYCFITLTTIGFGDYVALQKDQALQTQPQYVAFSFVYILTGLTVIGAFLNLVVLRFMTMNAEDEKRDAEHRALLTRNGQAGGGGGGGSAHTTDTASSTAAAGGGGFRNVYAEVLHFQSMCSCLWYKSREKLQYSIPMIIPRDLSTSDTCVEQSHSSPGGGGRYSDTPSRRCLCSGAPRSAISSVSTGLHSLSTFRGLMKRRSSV
measured.quantity: pIC50
Friendly reminder that pIC50 comes from taking -log10 of the concentration in mol/L.

Provide only the value of recorded pIC50 for COc1cccc(C(=O)N2C3CCC2CN(Cc2c(-c4ccc(Cl)cc4)nc4ncccn24)C3)c1 [Example 36]
6.51

Provide only the value of recorded pIC50 for CC(C)c1ccc(-c2nc3ncccn3c2CN2CC3CCC2CN3C(=O)c2cccc(OC(F)F)n2)cc1 (stereo not shown) [Example 75]
5.42

Provide only the value of recorded pIC50 for COc1ccc(C)c(C(=O)N2CC3CCC2CN3Cc2c(-c3ccc(C(C)C)cc3)nc3ncccn23)n1 (stereo not shown) [Example 78]
5.42

Provide only the value of recorded pIC50 for CC(C)c1ccc(-c2nc3ncccn3c2CN2CC3CCC2CN3C(=O)OC(C)(C)C)cc1 (racemic) [Example 7]
5.07

---

biological target: human TASK-3 (Homo sapiens (Human), UniProt Q9NPC2); assay: Inhibition of recombinant TASK-3 in stably transfected CHO cells (voltage-sensitive dye, KCl depolarization); assay type: cell-based; conditions: depolarization by 40 mM potassium chloride
Sequence (Q9NPC2 whole entry): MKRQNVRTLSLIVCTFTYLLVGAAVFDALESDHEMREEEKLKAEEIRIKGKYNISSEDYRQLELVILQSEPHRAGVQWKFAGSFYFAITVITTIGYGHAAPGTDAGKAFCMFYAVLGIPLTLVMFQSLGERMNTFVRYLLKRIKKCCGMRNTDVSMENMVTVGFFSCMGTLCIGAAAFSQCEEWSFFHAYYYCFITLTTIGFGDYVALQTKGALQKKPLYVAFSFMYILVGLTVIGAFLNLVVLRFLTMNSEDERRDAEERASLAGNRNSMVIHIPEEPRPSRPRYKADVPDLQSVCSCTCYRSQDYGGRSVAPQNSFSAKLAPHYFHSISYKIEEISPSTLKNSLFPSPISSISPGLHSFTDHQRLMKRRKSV
measured.quantity: IC50 (nM)
Please give a number only; it is taken to be in nM.

Provide only the value of recorded IC50 for O=C(c1csc(C(F)(F)F)n1)N1C2CCC1CN(Cc1c(-c3ccc(Cl)cc3)nc3ncccn13)C2
17

Provide only the value of recorded IC50 for COc1cccc(C(=O)N2C3COCC2CN(Cc2c(-c4ccc(Cl)cc4)nc4ncccn24)C3)n1
33

Provide only the value of recorded IC50 for O=C(N1CCOCC1)N1C2CCC1CN(Cc1c(-c3ccc(Cl)cc3)nc3ncccn13)C2
230

Provide only the value of recorded IC50 for COc1ccc(C)c(C(=O)N2CC3CCC2CN3Cc2c(-c3ccc(Cl)cc3)nc3ncccn23)n1 (single isomer, unassigned)
71

Provide only the value of recorded IC50 for COc1ccc(Cl)c(C(=O)N2CC3CCC2CN3Cc2c(-c3ccc(C(C)C)cc3)nc3ncccn23)n1 (stereo not drawn) [Example 69]
22

Provide only the value of recorded IC50 for COc1ccc(F)c(C(=O)N2CC3CCC2CN3Cc2c(-c3ccc(Br)cc3)nc3ncccn23)n1 (stereo not drawn)
21

Provide only the value of recorded IC50 for Cc1nc(C(=O)N2C3CCC2CN(Cc2c(-c4ccc(Cl)cc4)nc4ncccn24)C3)c(C)o1
54

Provide only the value of recorded IC50 for COc1cccc(C(=O)N2CC3CCC2CN3Cc2c(-c3ccc(C(C)C)cc3)nc3ncccn23)n1 (stereo not drawn) [Example 73]
81

Provide only the value of recorded IC50 for CN(C(=O)N1C2CCC1CN(Cc1c(-c3ccc(Cl)cc3)nc3ncccn13)C2)c1ccccc1
90

Provide only the value of recorded IC50 for O=C(OC1CCCCC1)N1C2CCC1CN(Cc1c(-c3ccc(Cl)cc3)nc3ncccn13)C2
110

Provide only the value of recorded IC50 for CCc1cccc(C)c1NC(=O)N1C2CCC1CN(Cc1c(-c3ccc(Cl)cc3)nc3ncccn13)C2
160

Provide only the value of recorded IC50 for O=C(N1CCCC1)N1C2CCC1CN(Cc1c(-c3ccc(Cl)cc3)nc3ncccn13)C2
62

Provide only the value of recorded IC50 for CC(C)c1nc(C(=O)N2C3CCC2CN(Cc2c(-c4ccc(Cl)cc4)nc4ncccn24)C3)cs1
13

Provide only the value of recorded IC50 for Cc1ccccc1CNC(=O)N1C2CCC1CN(Cc1c(-c3ccc(Cl)cc3)nc3ncccn13)C2
750

Provide only the value of recorded IC50 for COc1cccc(C(=O)N2C3CCC2CN(Cc2c(-c4ccc(C(C)C)cc4)nc4ncccn24)C3)n1
15

---

Kindly state IC50 for each of the entries shown.
biological target: UniProt Q9NPC2; test: Inhibition of recombinant TASK-3 in stably transfected CHO cells (voltage-sensitive dye, KCl depolarization); assay type: cell-based; settings: depolarization by 40 mM potassium chloride
Please give a number only; it is taken to be in nM.

Provide only the value of recorded IC50 for CN(C)C(=O)N1C2CCC1CN(Cc1c(-c3ccc(Cl)cc3)nc3ncccn13)C2 [Example 119]
210

Provide only the value of recorded IC50 for Cc1nc(C)c(C(=O)N2C3CCC2CN(Cc2c(-c4ccc(Cl)cc4)nc4ncccn24)C3)o1 [Example 50]
430

Provide only the value of recorded IC50 for CC(C)c1ccc(-c2nc3ncccn3c2CN2CC3CCC2CN3C(=O)c2cccc(OC(F)F)n2)cc1 (stereo not shown) [Example 76]
56

Provide only the value of recorded IC50 for CC(C)(C)OC(=O)N1C2COCC1CN(Cc1c(-c3ccc(Cl)cc3)nc3ncccn13)C2 [Example 1]
400

---

target: human TASK-3 (Homo sapiens (Human)); assay: Inhibition of recombinant TASK-3 in stably transfected CHO cells (voltage-sensitive dye, KCl depolarization); format: cell-based; details: depolarization by 40 mM potassium chloride
measured.quantity: pIC50
Friendly reminder that pIC50 comes from taking -log10 of the concentration in mol/L.

Provide only the value of recorded pIC50 for O=C(Nc1ccc(SC(F)(F)F)cc1)N1C2CCC1CN(Cc1c(-c3ccc(Cl)cc3)nc3ncccn13)C2
6.16

Provide only the value of recorded pIC50 for O=C(OC1CCCC1)N1C2CCC1CN(Cc1c(-c3ccc(Cl)cc3)nc3ncccn13)C2
7.57

Provide only the value of recorded pIC50 for CC(C)(C)OC(=O)N1CC2CCC1CN2Cc1c(-c2ccc(Br)cc2)nc2ncccn12 (stereo not shown)
7.80

Provide only the value of recorded pIC50 for CC(C)N(C(=O)N1C2CCC1CN(Cc1c(-c3ccc(Cl)cc3)nc3ncccn13)C2)C(C)C
6.54

---

molecular target: UniProt Q9NPC2; assay: Two-electrode voltage clamp analysis of human TASK-3 channel in Xenopus laevis oocytes; assay type: cell-based; conditions: human TASK-3 expressed in Xenopus laevis oocytes, room temperature
Kindly state pIC50 for each of the entries shown.
Friendly reminder that pIC50 comes from taking -log10 of the concentration in mol/L.

Provide only the value of recorded pIC50 for COc1ccc(Cl)c(C(=O)N2CC3CCC2CN3Cc2c(-c3ccc(C(C)C)cc3)nc3ncccn23)n1 (single isomer, unassigned)
6.85

Provide only the value of recorded pIC50 for CC(C)c1ccc(-c2nc3ncccn3c2CN2CC3CCC2CN3C(=O)c2ncoc2C2CC2)cc1 (single isomer, unassigned)
6.44

Provide only the value of recorded pIC50 for COc1ccc(F)c(C(=O)N2CC3CCC2CN3Cc2c(-c3ccc(Cl)cc3)nc3ncccn23)n1 (stereo not shown)
7.14

Provide only the value of recorded pIC50 for CC(C)c1ccc(-c2nc3ncccn3c2CN2CC3COCC(C2)N3C(=O)c2cccc(OC(F)F)n2)cc1
6.11

---

Kindly state IC50 for each of the entries shown.
target: human TASK-3 (Homo sapiens (Human), UniProt Q9NPC2); experiment: Inhibition of recombinant TASK-3 in stably transfected CHO cells (voltage-sensitive dye, KCl depolarization); assay type: cell-based; details: depolarization by 40 mM potassium chloride

Provide only the value of recorded IC50 for CC(C)N(C(=O)N1C2CCC1CN(Cc1c(-c3ccc(Cl)cc3)nc3ncccn13)C2)c1ccc(Cl)cc1
220 nM

Provide only the value of recorded IC50 for Cc1sc(C(=O)N2C3CCC2CN(Cc2c(-c4ccc(Cl)cc4)nc4ncccn24)C3)nc1Br
52 nM

Provide only the value of recorded IC50 for COc1ccc(F)c(C(=O)N2C3COCC2CN(Cc2c(-c4ccc(C(C)C)cc4)nc4ncccn24)C3)n1
8.6 nM

Provide only the value of recorded IC50 for COc1ccc(F)c(C(=O)N2CC3CCC2CN3Cc2c(-c3ccc(Cl)cc3)nc3ncccn23)n1 (stereo not shown) [Example 41]
100 nM

Provide only the value of recorded IC50 for CSc1cccc(C(=O)N2C3CCC2CN(Cc2c(-c4ccc(Cl)cc4)nc4ncccn24)C3)n1
130 nM

Provide only the value of recorded IC50 for CC(C)c1ccc(-c2nc3ncccn3c2CN2CC3CCC2CN3C(=O)c2cccc(OC(F)F)n2)cc1 (stereo not shown) [Example 75]
51 nM

Provide only the value of recorded IC50 for Cc1cccc(C)c1NC(=O)N1C2CCC1CN(Cc1c(-c3ccc(Cl)cc3)nc3ncccn13)C2
270 nM
